- Experimental target: T1, cynomolgus PD-1 (#PD1-C52H5, AcroBiosystems) (cynomolgus monkey, UniProt B0LAJ3 25-170)
- T1 construct: bought; also called cynomolgus monkey PD-1; not shown: the vendor's tag on the recombinant protein (AcroBiosystems #PD1-C52H5)
- T1 sequence (B0LAJ3 entry or part of it limits assumed, form in doubt): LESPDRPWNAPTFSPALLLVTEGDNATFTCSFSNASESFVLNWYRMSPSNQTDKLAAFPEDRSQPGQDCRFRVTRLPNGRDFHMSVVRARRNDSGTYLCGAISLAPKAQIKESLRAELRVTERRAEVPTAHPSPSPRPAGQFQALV
- Test name: SPR, PD-1 on captured IgG1
Reported endpoint: Kd (nM)
Output spec: scalar in nM, unitless text.

So what does the record say about Kd for YCF391 (antibody, human IgG1, V domains shown, human IgG1) VH: VQLVQSGAEVKKPGASVKVSCKASGYTFTNFYIHWVRQAPGQGLEWMGSTYPNYGITAYNQKFKDRVTMTVDTSTSTAYMELRSLRSDDTAVYYCARGYSYAMDYWGQGTTVTVSS VL: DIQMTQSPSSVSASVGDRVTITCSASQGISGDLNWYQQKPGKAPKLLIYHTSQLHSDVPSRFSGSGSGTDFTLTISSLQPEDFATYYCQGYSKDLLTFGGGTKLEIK ?
0.664

Same again, this time with ACH836 (antibody, human IgG1, V domains shown, human IgG1) VH: VQLVQSGAEVKKPGASVKVSCKASGYTFTNFYIHWVRQAPGQGLEWMGSIYPNYGITAYNQKFKDRVTMTVDTSTSTAYMELRSLRSDDTAVYYCARGYSYAMDYWGQGTTVTVSS VL: DIQMTQSPSSVSASVGDRVTITCSASQGASGDLNWYQQKPGKAPKLLIYHTSQLHSDVPSRFSGSGSGTDFTLTISSLQPEDFATYYCQGYSKDLLTFGGGTKLEIK
0.205

Same again, this time with DKR699 (antibody, human IgG1, V domains shown, human IgG1) VH: VQLVQSGAEVKKPGASVKVSCKASGYTFTNFYIHWVRQAPGQGLEWMGSIYPNYGDTAYNQKFKDRVTMTVDTSTSTAYMELRSLRSDDTAVYYCARGYSYAMDYWGQGTTVTVSS VL: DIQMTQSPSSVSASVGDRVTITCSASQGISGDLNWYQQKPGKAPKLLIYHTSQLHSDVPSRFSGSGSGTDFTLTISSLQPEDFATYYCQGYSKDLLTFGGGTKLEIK
0.86

Same again, this time with NRT742 (antibody, human IgG1, V domains shown, human IgG1) VH: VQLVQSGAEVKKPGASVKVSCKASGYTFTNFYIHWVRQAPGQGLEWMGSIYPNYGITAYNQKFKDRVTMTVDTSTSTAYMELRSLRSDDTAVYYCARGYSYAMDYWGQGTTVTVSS VL: DIQMTQSPSSVSASVGDRVTITCSASQGISGDLNWYQQKPGKAPKLLIYHASQLHSDVPSRFSGSGSGTDFTLTISSLQPEDFATYYCQGYSKDLLTFGGGTKLEIK
0.541

Same again, this time with JPK663 (antibody, human IgG1, V domains shown, human IgG1) VH: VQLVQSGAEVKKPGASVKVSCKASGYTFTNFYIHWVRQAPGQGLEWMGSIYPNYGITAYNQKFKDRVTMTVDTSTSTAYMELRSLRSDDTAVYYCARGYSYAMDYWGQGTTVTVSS VL: DIQMTQSPSSVSASVGDRVTATCSASQGISGDLNWYQQKPGKAPKLLIYHTSQLHSDVPSRFSGSGSGTDFTLTISSLQPEDFATYYCQGYSKDLLTFGGGTKLEIK
0.246

Same again, this time with OKM590 (antibody, human IgG1, V domains shown, human IgG1) VH: VQLVQSGAEVKKPGASVKVSCKASGYTFTNFYIHWVRQAPGQGLEWMGSIYPNYGITAYNQKFKDRVTMTVDTSTSTAYMELRSLRSDDTAVYYCARGYSYAMDVWGQGTTVTVSS VL: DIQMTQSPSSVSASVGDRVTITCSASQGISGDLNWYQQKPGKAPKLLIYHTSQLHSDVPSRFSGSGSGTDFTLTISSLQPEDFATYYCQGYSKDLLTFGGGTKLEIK
0.627

Same again, this time with BBJ602 (antibody, human IgG1, V domains shown, human IgG1) VH: VQLVQSGAEVKKPGASVKVSCKASGYTFTNFYIHWVRQAPGQGLEWMGSIYPNYGITAYNQKFKDRVTMTVDTSTSTAYMELRSLRSDDTAVYYCARGYSYGMDYWGQGTTVTVSS VL: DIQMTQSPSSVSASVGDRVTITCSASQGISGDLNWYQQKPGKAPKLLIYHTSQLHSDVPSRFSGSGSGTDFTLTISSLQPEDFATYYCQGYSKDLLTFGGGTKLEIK
8.53

Same again, this time with WAZ460 (antibody, human IgG1, V domains shown, human IgG1) VH: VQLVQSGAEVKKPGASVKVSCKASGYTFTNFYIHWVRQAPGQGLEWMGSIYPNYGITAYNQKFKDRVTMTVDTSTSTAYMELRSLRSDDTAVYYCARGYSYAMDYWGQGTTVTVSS VL: DIQMTQSPSSVSASVGDRVTITCRASQGISGDLNWYQQKPGKAPKLLIYHTSQLHSDVPSRFSGSGSGTDFTLTISSLQPEDFATYYCQGYSKDLLTFGGGTKLEIK
0.331

Same again, this time with PEV057 (antibody, human IgG1, V domains shown, human IgG1) VH: VQLVQSGAEVKKPGASVKVSCKASGYTFTNFYIHWVRQAPGQGLEWMGSIYPNYGITAYNQKFKDRVTMTVDTSTSTAYMELRSLRSDDTATYYCARGYSYAMDYWGQGTTVTVSS VL: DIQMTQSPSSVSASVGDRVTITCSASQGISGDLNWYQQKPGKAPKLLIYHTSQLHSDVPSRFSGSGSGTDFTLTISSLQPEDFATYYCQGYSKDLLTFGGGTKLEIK
0.327

Same again, this time with RZL961 (antibody, human IgG1, V domains shown, human IgG1) VH: VQLVQSGAEVKKPGASVKVSCKASGYTFTNFYIHWVRQAPGQGLEWMGSIYPQYGITAYNQKFKDRVTMTVDTSTSTAYMELRSLRSDDTAVYYCARGYSYAMDYWGQGTTVTVSS VL: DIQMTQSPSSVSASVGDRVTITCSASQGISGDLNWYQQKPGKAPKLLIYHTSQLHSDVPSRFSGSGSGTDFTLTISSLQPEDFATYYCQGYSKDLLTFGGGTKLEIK
0.785

Same again, this time with ZTD928 (antibody, human IgG1, V domains shown, human IgG1) VH: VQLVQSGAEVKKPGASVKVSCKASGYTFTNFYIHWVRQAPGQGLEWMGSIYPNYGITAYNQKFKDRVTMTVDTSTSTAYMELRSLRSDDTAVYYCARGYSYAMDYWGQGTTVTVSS VL: DIQMTQSPSSVSASVGDRVTITCSASQGISGDLNWYQQKPGKAPKLLIYHTSQLHSDVPSRFSGSGSGTDFTLTISSLQPEDFATYYCQGYSKDTLTFGGGTKLEIK
0.502

Same again, this time with ICW519 (antibody, human IgG1, V domains shown, human IgG1) VH: VQLVQSGAEVKKPGASVKVSCKASGYTFTNFYIHWVRQAPGQGLEWMGSIYPNYGITAYNQKFQDRVTMTVDTSTSTAYMELRSLRSDDTAVYYCARGYSYAMDYWGQGTTVTVSS VL: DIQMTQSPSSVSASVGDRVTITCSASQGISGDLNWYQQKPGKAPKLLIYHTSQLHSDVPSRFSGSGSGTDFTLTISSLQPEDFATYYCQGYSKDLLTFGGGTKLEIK
0.296
